System: C6 glioma cells
Procedure Details: Protection against 5 mM glutamate cytotoxicity in glioma C6 cultures
Experimental Conditions: Rattus norvegicus, C6 glioma, 24 h, read-out: % Cell survival
Outcome Measure: viability at 1 µM (%)
Answers are plain numbers, in %.

• CC(=O)OCCNC(=O)C1(C)CCc2c(C)c(OC(C)=O)c(C)c(C)c2O1 (stereo not shown) = 17
• Cc1c(C)c2c(c(C)c1O)CC(CC(=O)NCCCO)O2 (stereo not shown) = 8
• Cc1c(C)c2c(c(C)c1O)CC(CC(=O)NCCO)O2 (stereo not shown) = 13

Proceeding to the next molecule to report its viability at 1 µM.
The measured viability at 1 µM associated with Cc1c(C)c2c(c(C)c1O)CCC(C)(C(=O)NCCCO)O2 (stereo not shown) reads 10

====

Procedure Details: Solubility
Format: physicochemical
Experimental Conditions: organic solvent or mixture; in ethanol and chloroform; read-out: solubility in org. solv.
Outcome Measure: solubility

Cc1c(C)c2c(c(C)c1OC(=O)CCC(=O)NCCO)CCC(C)(CCCC(C)CCCC(C)CCCC(C)C)O2 (stereo not shown) has a reported solubility of > 10000 µg/mL

====

Would you kindly list viability at 10 µM for each of these molecules?
Tested on: granular cerebellar cells
Procedure Details: Protection against 2 mM glutamate cytotoxicity in immature granular cerebellar cell cultures
Experimental Conditions: Mus musculus, 24 h, read-out: % Cellular survival
Please append the unit to your numeric answer.

- Cc1c(C)c2c(c(C)c1O)CC(CC(=O)NCCCO)O2 (centres unmarked): 83%
- Cc1c(C)c2c(c(C)c1O)CC(CC(=O)NCCO)O2 (centres unmarked): 94%
- Cc1c(C)c2c(c(C)c1O)CCC(C)(C(=O)NCCCO)O2 (centres unmarked): 77%
- CC(=O)OCCNC(=O)C1(C)CCc2c(C)c(OC(C)=O)c(C)c(C)c2O1 (centres unmarked): 60%

Summary: Cc1c(C)c2c(c(C)c1O)CCC(C)(C(=O)O)O2 (centres unmarked) [reference compound] , granular cerebellar cells, viability at 10 µM = 43%

====

Consider the following compounds; for each one, report its solubility.
Procedure Details: Solubility
Assay type: physicochemical
Experimental Conditions: organic solvent or mixture; in ethanol; DMSO, chloroform; read-out: solubility in org. solv.

* Cc1c(C)c2c(c(C)c1O)CCC(C)(C(=O)NCCCO)O2 (stereo not drawn) | > 10000 µg/mL

// for each compound in input: emit solubility
1. Cc1c(C)c2c(c(C)c1O)CC(CC(=O)NCCCO)O2 (stereo not drawn)
2. Cc1c(C)c2c(c(C)c1O)CC(CC(=O)NCCO)O2 (stereo not drawn)

1. > 10000 µg/mL
2. > 10000 µg/mL

====

Procedure Details: Solubility
Format: physicochemical
Experimental Conditions: water
Outcome Measure: water solubility

Some entries whose results are on file:
* Cc1c(C)c2c(c(C)c1O)CC(CC(=O)NCCO)O2 (centres unmarked) [Example 1] | slightly soluble
* Cc1c(C)c2c(c(C)c1O)CC(CC(=O)NCCCO)O2 (centres unmarked) [Example 5] | slightly soluble
* CC(=O)OCCNC(=O)C1(C)CCc2c(C)c(OC(C)=O)c(C)c(C)c2O1 (centres unmarked) [Example 3] | slightly soluble
* Cc1c(C)c2c(c(C)c1O)CCC(C)(C(=O)NCCCO)O2 (centres unmarked) [Example 4] | slightly soluble

Next item in the queue.
// water solubility value for Cc1c(C)c2c(c(C)c1OC(=O)CCC(=O)NCCO)CCC(C)(CCCC(C)CCCC(C)CCCC(C)C)O2 (centres unmarked) [Example 2] : slightly soluble
